# target entity: T1, human PD-L1-Fc protein (human, UniProt Q9NZQ7 19-239)
# T1 construct: Bought from R&D Systems; also called immobilised PD-L1-Fc; not shown: Fc part of the bought fusion protein, not described
# T1 sequence (Q9NZQ7 19-239 limits assumed): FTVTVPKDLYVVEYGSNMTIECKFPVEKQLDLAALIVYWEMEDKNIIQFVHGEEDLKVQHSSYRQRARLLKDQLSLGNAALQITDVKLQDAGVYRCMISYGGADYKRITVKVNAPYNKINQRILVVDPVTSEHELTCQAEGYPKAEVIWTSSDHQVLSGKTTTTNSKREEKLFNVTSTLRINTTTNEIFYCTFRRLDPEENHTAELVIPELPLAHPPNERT
# test protocol: ELISA, Fab on coated human PD-L1-Fc, pH 7.4
property measured: EC50

Which EC50 is listed for Fab 8D04 (Fab, V domains shown, Purified Fab prepared from IgG with the Pierce kit; also called 8D04 Fab) VH: QVQLVQSGGGVVQPGRSLRLSCAASGFTFSSYGMYWVRQAPGKGLEWVAVISYDGSNKYYADSVKGRFTISRDNSKNTLNLQMNSLRAEDTAVYYCAKGALTHWGVVIGDGMDVWGQGTTVTVSS VL: NFMLTQPHSVSESPGKTVTISCRGTGSSFHHKYVRWYQQRPGSSPTTVIYEDDQRPSGVPDRFSGSIDSSSNSASLTISGLKTEDEADYYCQSFDSTNPWVFGGGTKLTVL ?
> 100 nM
